A set of molecules tested on Interstitial collagenase (Homo sapiens, UniProt P03956), with measured pIC50:
Conceptually, pIC50 converts a concentration in mol/L into minus its log10.

Ask: Missing value: pIC50, Interstitial collagenase (Homo sapiens, UniProt P03956), entry O=C(Nc1ccc([N+](=O)[O-])cc1)C(c1ccccc1)N(C(=O)c1ccccc1I)c1ccccc1 (configuration not stated) . Fill in?
Reply: 6.98

Ask: Provide value of pIC50 for this record tested with Interstitial collagenase (Homo sapiens, UniProt P03956): O=C(Nc1ccc([N+](=O)[O-])cc1)C(c1ccccc1)N(Cc1ccccc1)C(=O)Cc1ccccc1 (configuration not stated)
Sequence (P03956 whole entry): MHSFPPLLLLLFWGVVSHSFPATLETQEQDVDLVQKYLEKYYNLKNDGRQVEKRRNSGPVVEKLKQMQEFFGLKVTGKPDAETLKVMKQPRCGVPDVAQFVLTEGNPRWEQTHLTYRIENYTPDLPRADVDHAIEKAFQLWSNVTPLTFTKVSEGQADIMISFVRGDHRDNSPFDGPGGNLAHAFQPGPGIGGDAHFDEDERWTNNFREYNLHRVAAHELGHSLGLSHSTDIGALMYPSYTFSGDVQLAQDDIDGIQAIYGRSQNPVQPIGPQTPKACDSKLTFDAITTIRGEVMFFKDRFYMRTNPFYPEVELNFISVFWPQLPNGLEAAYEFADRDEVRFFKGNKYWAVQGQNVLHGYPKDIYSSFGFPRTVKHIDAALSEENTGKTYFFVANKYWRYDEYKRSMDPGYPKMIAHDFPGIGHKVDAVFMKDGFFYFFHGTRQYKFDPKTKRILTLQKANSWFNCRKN
Reply: 7.33

###

experiment: Anticancer activity against […] cells assessed as reduction in cell viability by MTT assay; format: functional, cell-based; settings: Mus musculus
ENDPOINT LABEL: pIC50
# reply with the number alone; pIC50 is -log10 of concentration in mol/L

Ask: Fill in: pIC50 of COc1cccc2c1C(=O)c1c(O)c3c(c(O)c1C2=O)C[C@@](O)(C(=O)CO)C[C@@H]3O[C@H]1C[C@H](N)[C@H](O)[C@H](C)O1 [DOXORUBICIN] is ___
Reply: 7.89

Ask: Need pIC50 of O=C(Nc1ccc([N+](=O)[O-])cc1)C(c1ccccc1)N(C(=O)/C=C/c1ccccc1)c1ccccc1 (stereo not given) , thanks.
Reply: 7.89

Ask: Find the recorded pIC50 belonging to O=C(Nc1ccc([N+](=O)[O-])cc1)C(c1ccccc1)N(C(=O)c1ccc(C(F)(F)F)cc1)c1ccccc1 (stereo not given) and report it.
Reply: 7.94

Ask: Record request: pIC50 value, item Cc1ccc(N(C(=O)c2ccc(C(F)(F)F)cc2)C(C(=O)Nc2ccc([N+](=O)[O-])cc2)c2ccccc2)cc1 (stereo not given)
Reply: 7.99

Ask: Query: pIC50; subject: O=C(Nc1ccc([N+](=O)[O-])cc1)C(c1ccccc1)N(C(=O)c1ccc([N+](=O)[O-])cc1)c1ccccc1 (stereo not given)
Reply: 7.92
